Biological target: T1, full-length beta-catenin (UniProt P35222 2-781, limits assumed)
T1 construct: mature; also called full-length ß-Catenin; β-catenin
T1 sequence (looked up): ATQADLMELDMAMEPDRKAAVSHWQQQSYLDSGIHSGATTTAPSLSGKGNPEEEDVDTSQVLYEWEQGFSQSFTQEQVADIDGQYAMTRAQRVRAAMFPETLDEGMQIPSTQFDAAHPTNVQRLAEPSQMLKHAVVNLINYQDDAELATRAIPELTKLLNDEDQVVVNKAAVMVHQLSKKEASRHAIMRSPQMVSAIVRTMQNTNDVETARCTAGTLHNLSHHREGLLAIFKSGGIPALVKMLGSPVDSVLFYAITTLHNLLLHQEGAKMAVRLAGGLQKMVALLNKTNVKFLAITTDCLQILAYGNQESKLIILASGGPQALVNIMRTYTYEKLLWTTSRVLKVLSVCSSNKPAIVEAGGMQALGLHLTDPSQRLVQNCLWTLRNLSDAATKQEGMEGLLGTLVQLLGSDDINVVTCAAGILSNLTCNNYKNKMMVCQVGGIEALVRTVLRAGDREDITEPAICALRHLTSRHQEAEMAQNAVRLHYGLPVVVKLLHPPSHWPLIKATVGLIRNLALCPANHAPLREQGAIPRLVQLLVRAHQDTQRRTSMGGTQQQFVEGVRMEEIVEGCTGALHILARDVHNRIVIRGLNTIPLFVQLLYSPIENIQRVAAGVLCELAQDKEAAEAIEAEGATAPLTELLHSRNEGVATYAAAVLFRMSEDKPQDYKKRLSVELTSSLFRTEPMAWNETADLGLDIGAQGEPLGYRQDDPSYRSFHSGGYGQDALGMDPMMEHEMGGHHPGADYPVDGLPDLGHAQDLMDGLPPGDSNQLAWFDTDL
Experiment: competition FP; NB = no binding detected
Numbered stars: 1 amine (or outer) side, 2 acyl side, 3 side chain; on linkers, the order of the positions; unused ones are H or OH. Bridge positions count the residues as written; N and C are the ends. Square brackets hold non-standard residues; d marks the D form. Primed or numbered codes have the meaning given here. MB(10) = Monomer B = PyrS, pyrrolidine stapling residue with allyl carbamate, (S)-3-amino-1-(allyloxycarbonyl)pyrrolidine-3-carboxylic acid, C=CCOC(=O)N1CC[C@@](N[*:1])(C(=O)[*:2])C1; MB(4) = Monomer B (PyrS), N-Alloc pyrrolidine stapling residue, (S)-3-amino-1-(allyloxycarbonyl)pyrrolidine-3-carboxylic acid, C=CCOC(=O)N1CC[C@@](N[*:1])(C(=O)[*:2])C1; MB(8) = Monomer B (PyrS), pyrrolidine stapling residue bearing N-allyl carbamate (Alloc), forms carbamate staple with R8 by ring-closing olefin metathesis, i to i+7; MB(9) = Monomer B (PyrS), pyrrolidine stapling residue with N-allyloxycarbonyl (Alloc), forms a carbamate staple with R8 by olefin metathesis; MB″ = Monomer B (PyrS), pyrrolidine stapling residue with N-allyl carbamate, forms carbamate staple with R8 by olefin metathesis; MB(6) = Monomer B (PyrS), N-Alloc pyrrolidine stapling residue, forms carbamate staple with R8 by olefin metathesis; MB(5) = Monomer B (PyrS), N-Alloc pyrrolidine stapling residue; Ala(2-furyl) = N[C@@H](Cc1ccco1)C(=O)O; Phe(4-Me) = Cc1ccc(C[C@H](N)C(=O)O)cc1; Ala(cPr) = N[C@@H](CC1CC1)C(=O)O; 2Pal = N[C@@H](Cc1ccccn1)C(=O)O; 3Pal = N[C@@H](Cc1cccnc1)C(=O)O; R8 = C=CCCCCCC[C@@](C)(N)C(=O)O
endpoint: binding result

Known binding result results, listed for orientation:
# binder, binding result
measured = [
    ("Ac-A[R8]ILDA[2Pal]I[MB(5)][Ala(cPr)]VW-NH2 (staple 2-9; not fully specified; printed as Ac-A-R8-I-L-D-A-2pyr-I-MB-cpa-V-W-NH2) [FP0574c Isomer 1]", "no binding"),
    ("Ac-A[R8]ILDA[2Pal]I[MB(6)][Ala(2-furyl)]VW-NH2 (staple 2-9; not fully specified; printed as Ac-A-R8-I-L-D-A-2pyr-I-MB-fur-V-W-NH2) [FP0569c Isomer 2]", "no binding"),
    ("Ac-A[R8]ILDA[2Pal]I[MB″]YVW-NH2 (staple 2-9; not fully specified; printed as Ac-A-R8-I-L-D-A-2pyr-I-MB-Y-V-W-NH2) [FP0564c Isomer 1]", "no binding"),
    ("Ac-A[R8]ILDA[2Pal]I[MB(9)]LVW-NH2 (staple 2-9; not fully specified; printed as Ac-A-R8-I-L-D-A-2pyr-I-MB-L-V-W-NH2) [FP0557c Isomer 2]", "no binding"),
    ("Ac-A[R8]ILDA[2Pal]I[MB(8)]VVW-NH2 (staple 2-9; not fully specified; printed as Ac-A-R8-I-L-D-A-2pyr-I-MB-V-V-W-NH2) [FP0562c Isomer 2]", "no binding"),
    ("Ac-A[R8]ILDA[2Pal]I[MB(5)][3Pal]VW-NH2 (staple 2-9; not fully specified; printed as Ac-A-R8-I-L-D-A-2pyr-I-MB-3pyr-V-W-NH2) [FP0573c Isomer 1]", "no binding"),
    ("Ac-A[R8]ILDAFI[MB(10)]RVW-NH2 (staple 2-9) [FP0540c]", "no binding"),
]

# return recorded binding result for input Ac-A[R8]ILDA[2Pal]I[MB(4)][Phe(4-Me)]VW-NH2 (staple 2-9; not fully specified; printed as Ac-A-R8-I-L-D-A-2pyr-I-MB-4MeF-V-W-NH2) [FP0578c Isomer 1]
no binding
